test: Polymorphism behavior: crystal modification after 24 hours equilibration; type: physicochemical; conditions: Ethyl acetate
measurementName: Crystal modification after 24 hours equilibration (DSC/XRPD/TG)

Report Crystal modification after 24 hours equilibration (DSC/XRPD/TG) for Cn1c(Nc2ccc(C(F)(F)F)cc2)nc2cc(Oc3ccnc(-c4ncc(C(F)(F)F)[nH]4)c3)ccc21 please.
No change

Entry under review: CS(=O)(=O)O.Cn1c(Nc2ccc(C(F)(F)F)cc2)nc2cc(Oc3ccnc(-c4ncc(C(F)(F)F)[nH]4)c3)ccc21 [Mesylate] . Reported Crystal modification after 24 hours equilibration (DSC/XRPD/TG)?
No change

Which value of Crystal modification after 24 hours equilibration (DSC/XRPD/TG) has been reported for CCS(=O)(=O)O.Cn1c(Nc2ccc(C(F)(F)F)cc2)nc2cc(Oc3ccnc(-c4ncc(C(F)(F)F)[nH]4)c3)ccc21 [Esylate] in the records?
No change

###

assay: Polymorphism behavior: crystal modification after 24 hours equilibration; type: physicochemical; conditions: Methanol
measurementName: Crystal modification after 24 hours equilibration (DSC/XRPD/TG)

Endpoint output: Crystal modification after 24 hours equilibration (DSC/XRPD/TG) of CCS(=O)(=O)O.Cn1c(Nc2ccc(C(F)(F)F)cc2)nc2cc(Oc3ccnc(-c4ncc(C(F)(F)F)[nH]4)c3)ccc21 [Esylate] . Value?
No change

For the molecule Cn1c(Nc2ccc(C(F)(F)F)cc2)nc2cc(Oc3ccnc(-c4ncc(C(F)(F)F)[nH]4)c3)ccc21 , what Crystal modification after 24 hours equilibration (DSC/XRPD/TG) is on record?
No change

Quick one: Crystal modification after 24 hours equilibration (DSC/XRPD/TG) of CS(=O)(=O)O.Cn1c(Nc2ccc(C(F)(F)F)cc2)nc2cc(Oc3ccnc(-c4ncc(C(F)(F)F)[nH]4)c3)ccc21 [Mesylate] ?
No change

###

assay: Determination of solubility at 25° C.; format: physicochemical; conditions: water, 25 °C, water, thermodynamic from solid; read-out: Solubility (approx. at 25° C.) (HPLC)
measurementName: solubility (µg/mL)
Respond numerically; units are µg/mL and should not be typed.

Example results:
Suppose we examine the molecule CCS(=O)(=O)O.Cn1c(Nc2ccc(C(F)(F)F)cc2)nc2cc(Oc3ccnc(-c4ncc(C(F)(F)F)[nH]4)c3)ccc21 [Esylate] ; what solubility value has been reported?
60

// solubility lookup, key: Cn1c(Nc2ccc(C(F)(F)F)cc2)nc2cc(Oc3ccnc(-c4ncc(C(F)(F)F)[nH]4)c3)ccc21
24

Need solubility of CS(=O)(=O)O.Cn1c(Nc2ccc(C(F)(F)F)cc2)nc2cc(Oc3ccnc(-c4ncc(C(F)(F)F)[nH]4)c3)ccc21 [Mesylate] , thanks.
70

***
May I ask what solubility has been recorded for Cn1c(Nc2ccc(C(F)(F)F)cc2)nc2cc(Oc3ccnc(-c4ncc(C(F)(F)F)[nH]4)c3)ccc21.O=C(O)/C=C\C(=O)O [Maleate] ?
10

###

assay: Polymorphism behavior: crystal modification after 24 hours equilibration; format: physicochemical; settings: Water
measurementName: Crystal modification after 24 hours equilibration (DSC/XRPD/TG)

Data request, read-out Crystal modification after 24 hours equilibration (DSC/XRPD/TG), for CS(=O)(=O)O.Cn1c(Nc2ccc(C(F)(F)F)cc2)nc2cc(Oc3ccnc(-c4ncc(C(F)(F)F)[nH]4)c3)ccc21 [Mesylate]
Change

Entry Cn1c(Nc2ccc(C(F)(F)F)cc2)nc2cc(Oc3ccnc(-c4ncc(C(F)(F)F)[nH]4)c3)ccc21 has what Crystal modification after 24 hours equilibration (DSC/XRPD/TG)?
Change

Entry CCS(=O)(=O)O.Cn1c(Nc2ccc(C(F)(F)F)cc2)nc2cc(Oc3ccnc(-c4ncc(C(F)(F)F)[nH]4)c3)ccc21 [Esylate] has what Crystal modification after 24 hours equilibration (DSC/XRPD/TG)?
No change

So what's the measured Crystal modification after 24 hours equilibration (DSC/XRPD/TG) for this one? Cn1c(Nc2ccc(C(F)(F)F)cc2)nc2cc(Oc3ccnc(-c4ncc(C(F)(F)F)[nH]4)c3)ccc21.O=C(O)/C=C\C(=O)O [Maleate]
No change

###

assay: Aqueous solubility of API as a function of pH (shake flask method); type: physicochemical; conditions: aqueous HCl or NaOH solution, ionic strength 0.15 (KCl), aqueous buffer, thermodynamic from solid; pH 11.00; room temperature, 5 days
measurementName: solubility at 5 days (µg/mL)
API: value field is a number in µg/mL; no unit string.

Need solubility at 5 days of Cn1c(Nc2ccc(C(F)(F)F)cc2)nc2cc(Oc3ccnc(-c4ncc(C(F)(F)F)[nH]4)c3)ccc21 [API] , thanks.
0.3

###

test: Stability: degradation products (DP) and appearance (color) under stress conditions; assay type: physicochemical; conditions: 1-2 weeks 50° C./75% r.h.; 1% in mixture 1
measurementName: DP (%)
The figure you give is taken to be in %; do not add the unit.

Some entries whose results are on file:
Report DP for CCS(=O)(=O)O.Cn1c(Nc2ccc(C(F)(F)F)cc2)nc2cc(Oc3ccnc(-c4ncc(C(F)(F)F)[nH]4)c3)ccc21 [Esylate] please.
1.8

Name the reported DP value associated with the compound Cn1c(Nc2ccc(C(F)(F)F)cc2)nc2cc(Oc3ccnc(-c4ncc(C(F)(F)F)[nH]4)c3)ccc21.O=C(O)/C=C\C(=O)O [Maleate]
1.1

Which DP is reported for this compound? CS(=O)(=O)O.Cn1c(Nc2ccc(C(F)(F)F)cc2)nc2cc(Oc3ccnc(-c4ncc(C(F)(F)F)[nH]4)c3)ccc21 [Mesylate]
2

Okay, now this compound:
Quick check: DP of Cn1c(Nc2ccc(C(F)(F)F)cc2)nc2cc(Oc3ccnc(-c4ncc(C(F)(F)F)[nH]4)c3)ccc21 ?
0.8

###

assay: Stability: degradation products (DP) and appearance (color) under stress conditions; format: physicochemical; details: 1-2 weeks 50° C., tight container; 1% in mixture 2
measurementName: DP (%)
# value in %; strip the unit string

Example entries and their recorded answers appear below.
I am curious: what DP value has been reported for Cn1c(Nc2ccc(C(F)(F)F)cc2)nc2cc(Oc3ccnc(-c4ncc(C(F)(F)F)[nH]4)c3)ccc21.O=C(O)/C=C\C(=O)O [Maleate] ?
0.4

// query DP value for entry CS(=O)(=O)O.Cn1c(Nc2ccc(C(F)(F)F)cc2)nc2cc(Oc3ccnc(-c4ncc(C(F)(F)F)[nH]4)c3)ccc21 [Mesylate]
0.6

Bench note: what DP did CCS(=O)(=O)O.Cn1c(Nc2ccc(C(F)(F)F)cc2)nc2cc(Oc3ccnc(-c4ncc(C(F)(F)F)[nH]4)c3)ccc21 [Esylate] show?
0.6

Now take the following molecule into account.
Can you look up the measured DP of Cn1c(Nc2ccc(C(F)(F)F)cc2)nc2cc(Oc3ccnc(-c4ncc(C(F)(F)F)[nH]4)c3)ccc21 [API] for me?
0.6

###

assay: Determination of solubility at 25° C.; type: physicochemical; conditions: acetonitrile, 25 °C, organic solvent or mixture, thermodynamic from solid; read-out: Solubility (approx. at 25° C.)
The entries below are paired with their reported solubility.

Any idea what its solubility is? The compound is Cn1c(Nc2ccc(C(F)(F)F)cc2)nc2cc(Oc3ccnc(-c4ncc(C(F)(F)F)[nH]4)c3)ccc21 [API]
5200 µg/mL

Suppose we examine the compound Cn1c(Nc2ccc(C(F)(F)F)cc2)nc2cc(Oc3ccnc(-c4ncc(C(F)(F)F)[nH]4)c3)ccc21.O=C(O)/C=C\C(=O)O [Maleate] ; what solubility value has been reported?
4700 µg/mL

Please give the measured solubility for this compound: CS(=O)(=O)O.Cn1c(Nc2ccc(C(F)(F)F)cc2)nc2cc(Oc3ccnc(-c4ncc(C(F)(F)F)[nH]4)c3)ccc21 [Mesylate]
4000 µg/mL

Others:
What does the record list as solubility for CCS(=O)(=O)O.Cn1c(Nc2ccc(C(F)(F)F)cc2)nc2cc(Oc3ccnc(-c4ncc(C(F)(F)F)[nH]4)c3)ccc21 [Esylate] ?
2100 µg/mL

###

assay: Polymorphism behavior: crystal modification after 24 hours equilibration; format: physicochemical; details: Acetone
measurementName: Crystal modification after 24 hours equilibration (DSC/XRPD/TG)

Consider the molecule Cn1c(Nc2ccc(C(F)(F)F)cc2)nc2cc(Oc3ccnc(-c4ncc(C(F)(F)F)[nH]4)c3)ccc21 and give its measured Crystal modification after 24 hours equilibration (DSC/XRPD/TG).
No change

Entry under review: CS(=O)(=O)O.Cn1c(Nc2ccc(C(F)(F)F)cc2)nc2cc(Oc3ccnc(-c4ncc(C(F)(F)F)[nH]4)c3)ccc21 [Mesylate] . Reported Crystal modification after 24 hours equilibration (DSC/XRPD/TG)?
No change

Need Crystal modification after 24 hours equilibration (DSC/XRPD/TG) of CCS(=O)(=O)O.Cn1c(Nc2ccc(C(F)(F)F)cc2)nc2cc(Oc3ccnc(-c4ncc(C(F)(F)F)[nH]4)c3)ccc21 [Esylate] , thanks.
No change

###

assay: Polymorphism behavior: crystal modification after 24 hours equilibration; type: physicochemical; conditions: Acetonitrile
measurementName: Crystal modification after 24 hours equilibration (DSC/XRPD/TG)

Tell me the measured Crystal modification after 24 hours equilibration (DSC/XRPD/TG) of CS(=O)(=O)O.Cn1c(Nc2ccc(C(F)(F)F)cc2)nc2cc(Oc3ccnc(-c4ncc(C(F)(F)F)[nH]4)c3)ccc21 [Mesylate] , please.
No change

Give the measured Crystal modification after 24 hours equilibration (DSC/XRPD/TG) of Cn1c(Nc2ccc(C(F)(F)F)cc2)nc2cc(Oc3ccnc(-c4ncc(C(F)(F)F)[nH]4)c3)ccc21 [API] .
Change

Record request: Crystal modification after 24 hours equilibration (DSC/XRPD/TG) value, item Cn1c(Nc2ccc(C(F)(F)F)cc2)nc2cc(Oc3ccnc(-c4ncc(C(F)(F)F)[nH]4)c3)ccc21.O=C(O)/C=C\C(=O)O [Maleate]
Change

Any idea what its Crystal modification after 24 hours equilibration (DSC/XRPD/TG) is? The compound is CCS(=O)(=O)O.Cn1c(Nc2ccc(C(F)(F)F)cc2)nc2cc(Oc3ccnc(-c4ncc(C(F)(F)F)[nH]4)c3)ccc21 [Esylate]
No change

Entry source: patent US8202998B2
